- Tested on: Staphylococcus epidermidis
- assay-protocol: Antibacterial activity against Staphylococcus epidermidis H 6966/08 after 24 to 48 hrs by broth microdilution method
- Assay type: functional, organism-based
Activity calls are given as the source filed them. The rule behind the calls is not given here.
parameter: Activity

chemical-string	obs-value
CN1CCN(c2nc(C(N)=O)cnc2C#N)CC1	inactive
CCNc1nc(C(N)=O)cnc1C#N	inactive
CCCCCCCNc1nc(C(N)=O)cnc1C#N	inactive
N#Cc1ncc(C(N)=O)nc1NC1CCCC1	inactive
CCCCCCCCNc1nc(C(N)=O)cnc1C#N	inactive
N#Cc1ncc(C(N)=O)nc1Cl	inactive
N#Cc1ncc(C(N)=O)nc1NC1CCCCC1	inactive
